Sourced from patent US20200247894A1

Below, each entry is listed alongside its reported Kd.
target or test system: T1, Human IL2Rγ extracellular domain expressed with a C-terminal mouse IgG2a Fc tag (human)
T1 construct: whole entry is the Fc-fused construct; also called hIL-2Rg-mFc
T1 chain: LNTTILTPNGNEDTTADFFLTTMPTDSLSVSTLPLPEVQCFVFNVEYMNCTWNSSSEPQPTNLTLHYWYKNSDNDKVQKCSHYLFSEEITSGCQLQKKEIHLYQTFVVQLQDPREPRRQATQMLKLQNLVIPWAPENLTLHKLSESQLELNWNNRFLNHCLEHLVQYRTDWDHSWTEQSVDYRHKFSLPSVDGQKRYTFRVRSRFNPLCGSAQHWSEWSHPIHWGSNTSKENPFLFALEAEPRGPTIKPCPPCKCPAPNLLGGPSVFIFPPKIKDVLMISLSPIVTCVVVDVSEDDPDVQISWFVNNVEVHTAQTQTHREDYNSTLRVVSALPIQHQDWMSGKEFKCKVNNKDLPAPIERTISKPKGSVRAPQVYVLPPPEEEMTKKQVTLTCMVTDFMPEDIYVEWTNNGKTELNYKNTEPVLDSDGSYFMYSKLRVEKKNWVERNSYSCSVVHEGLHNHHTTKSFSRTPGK
experiment: SPR Biacore 4000, anti-hFc-captured mAb, 25 C
Numeric answer only, unit nM assumed.

H4H12886P (antibody, human IgG4 S228P, kappa, V domains shown, fully human anti-IL2Rgamma mAb, human IgG4 Fc) VH: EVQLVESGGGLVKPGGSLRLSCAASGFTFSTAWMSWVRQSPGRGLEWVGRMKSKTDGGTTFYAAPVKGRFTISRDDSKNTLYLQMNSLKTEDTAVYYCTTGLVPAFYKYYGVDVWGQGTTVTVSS VL: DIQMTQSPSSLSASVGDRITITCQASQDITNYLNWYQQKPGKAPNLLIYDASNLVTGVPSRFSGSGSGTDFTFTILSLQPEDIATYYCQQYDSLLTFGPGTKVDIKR
1.26
H4H13538P (antibody, human IgG4 S228P, kappa, V domains shown, fully human anti-IL2Rgamma mAb, human IgG4 Fc) VH: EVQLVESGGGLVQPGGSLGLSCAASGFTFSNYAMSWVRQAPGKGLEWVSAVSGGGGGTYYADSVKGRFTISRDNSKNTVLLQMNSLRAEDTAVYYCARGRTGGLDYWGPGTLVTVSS VL: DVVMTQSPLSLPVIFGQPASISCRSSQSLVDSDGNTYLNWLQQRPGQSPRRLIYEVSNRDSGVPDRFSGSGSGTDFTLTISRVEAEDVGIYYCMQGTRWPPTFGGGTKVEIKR
0.996
H4H12884P (antibody, human IgG4 S228P, kappa, V domains shown, fully human anti-IL2Rgamma mAb, human IgG4 Fc) VH: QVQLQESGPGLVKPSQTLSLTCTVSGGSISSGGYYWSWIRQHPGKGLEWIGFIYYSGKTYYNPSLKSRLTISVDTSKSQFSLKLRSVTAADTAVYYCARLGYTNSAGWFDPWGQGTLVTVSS VL: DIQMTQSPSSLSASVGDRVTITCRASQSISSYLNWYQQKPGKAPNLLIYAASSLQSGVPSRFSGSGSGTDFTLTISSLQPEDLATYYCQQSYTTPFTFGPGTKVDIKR
0.113

Query block: What does the data say about its Kd? Entry: H4H12858P (antibody, human IgG4 S228P, kappa, V domains shown, fully human anti-IL2Rgamma mAb, human IgG4 Fc; also called REGN9433) VH: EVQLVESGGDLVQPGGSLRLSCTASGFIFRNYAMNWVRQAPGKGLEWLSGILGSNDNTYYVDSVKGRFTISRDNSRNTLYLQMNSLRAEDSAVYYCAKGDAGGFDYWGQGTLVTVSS VL: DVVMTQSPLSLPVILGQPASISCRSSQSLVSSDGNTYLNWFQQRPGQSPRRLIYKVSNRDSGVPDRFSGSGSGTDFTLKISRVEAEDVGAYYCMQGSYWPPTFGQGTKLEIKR
Result block: 0.855

Query block: Which Kd is listed for H4H12889P (antibody, human IgG4 S228P, kappa, V domains shown, fully human anti-IL2Rgamma mAb, human IgG4 Fc; also called REGN7257) VH: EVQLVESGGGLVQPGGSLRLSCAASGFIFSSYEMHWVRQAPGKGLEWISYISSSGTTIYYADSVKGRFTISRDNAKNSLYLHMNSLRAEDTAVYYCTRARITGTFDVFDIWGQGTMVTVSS VL: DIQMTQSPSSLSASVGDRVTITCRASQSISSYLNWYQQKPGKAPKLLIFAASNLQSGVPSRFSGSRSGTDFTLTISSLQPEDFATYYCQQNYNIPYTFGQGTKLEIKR ?
Result block: 0.0447

Query block: Recorded Kd for H4H13541P (antibody, human IgG4 S228P, kappa, V domains shown, fully human anti-IL2Rgamma mAb, human IgG4 Fc) VH: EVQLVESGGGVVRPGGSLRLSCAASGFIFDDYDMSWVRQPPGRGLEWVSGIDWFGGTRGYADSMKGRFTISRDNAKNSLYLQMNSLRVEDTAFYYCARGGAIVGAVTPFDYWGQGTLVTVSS VL: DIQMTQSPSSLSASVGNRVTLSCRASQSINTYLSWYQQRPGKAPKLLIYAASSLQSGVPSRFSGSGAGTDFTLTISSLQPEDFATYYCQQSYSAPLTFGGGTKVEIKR , please?
Result block: 1.8
